This collection of values is drawn from ChEMBL document CHEMBL1201862.

tested on: SK-OV-3; test: NCI tumour cell line growth inhibition, 48 h
Activity calls are given as the source filed them. Rule as the data show it: active = GI50 up to about 1.1 µM and inactive = higher.
Would you mind telling me the reported GI50 of each entry?

Prompt: Look up GI50 of `O=c1[nH]c(-c2ccccc2)nc2cc(Cl)ccc12` and report it.
Completion: > 100 µM (inactive)

Prompt: Look up GI50 of `Brc1ccc2c3c1[C@H]1O[C@H]1c1cccc(c1-3)[C@@H]1O[C@H]21` and report it.
Completion: 19.1 µM (inactive)

Prompt: Look up GI50 of CC(OC(C)(C)C)[C@H](NC(=O)OC(C)(C)C)C(=O)O (some centres not stated) and report it.
Completion: > 100 µM (inactive)

Prompt: Look up GI50 of `N#Cc1[nH]c(=S)[nH]c1N` and report it.
Completion: > 100 µM (inactive)

Prompt: Look up GI50 of `c1ccc(Nc2nnc(CSc3nc(-c4ccccc4)c(-c4ccccc4)[nH]3)s2)cc1` and report it.
Completion: 22.8 µM (inactive)

Prompt: Look up GI50 of `CN1CCc2c(sc3ncn(Nc4ccc(Cl)cc4)c(=N)c23)C1` and report it.
Completion: > 100 µM (inactive)

Prompt: Look up GI50 of CON(C)C(=O)C(Cc1ccccc1)NC(=O)OCc1ccccc1 (configuration not stated) and report it.
Completion: > 100 µM (inactive)

Prompt: Look up GI50 of `COc1ccc(-c2ncn(C[Si](C)(C)C)c2-c2ccc(OC)cc2)cc1` and report it.
Completion: 20 µM (inactive)

Prompt: Look up GI50 of `COc1cc2c(/C=C3/C(=O)Nc4cc(C)c(O)cc43)c(Cl)[nH]c2cc1C` and report it.
Completion: 2.1 µM (inactive)

Prompt: Look up GI50 of `NC(=O)N=C(N(Cc1ccccc1)Cc1ccccc1)N(Cc1ccccc1)Cc1ccccc1` and report it.
Completion: > 58.7 µM (inactive)

Prompt: Look up GI50 of `CN(C)CCNC(=O)c1ccc(NCCCN(C)CCCNc2ccc(C(=O)NCCN(C)C)c3nc4ccccc4c(O)c23)c2c(O)c3ccccc3nc12` and report it.
Completion: < 0.0146 µM (active)

Prompt: Look up GI50 of `N#Cc1c(N)nc2c(c1-c1ccc(Br)cc1)CSc1ccccc1-2` and report it.
Completion: 29.6 µM (inactive)

Prompt: Look up GI50 of `COc1ccc2nc3c(c(NCCCN(C)C)c2c1)CCCC3` and report it.
Completion: 20.5 µM (inactive)

Prompt: Look up GI50 of COc1ccc(OCC(=O)O)c2c1CCC(C)C2=O (configuration not stated) and report it.
Completion: > 100 µM (inactive)

Prompt: Look up GI50 of `C=CCc1cccc2cc(C(N)=O)c(=N)oc12` and report it.
Completion: 90.2 µM (inactive)

Prompt: Look up GI50 of COC(=O)C1=C(C=O)C2C=CC1C2 (configuration not stated) and report it.
Completion: > 68.7 µM (inactive)

Prompt: Look up GI50 of `CN(C)c1cccc2c(S(=O)(=O)NCCN)cccc12` and report it.
Completion: > 100 µM (inactive)

Prompt: Look up GI50 of `NS(=O)(=O)c1cc2c(cc1Cl)NC(C(=O)NNC(=O)c1ccncc1)=NS2(=O)=O` and report it.
Completion: > 100 µM (inactive)

Prompt: Look up GI50 of `CN(O)C(=O)CCCC(=O)NCC(C)(C)CNC(=O)CCCC(=O)N(C)O` and report it.
Completion: > 100 µM (inactive)

Prompt: Look up GI50 of `Cc1cc2[nH]c3c(C#N)c(-c4ccccc4)c(/C=N/c4cccc(C(F)(F)F)c4)c(=O)n3c2cc1C` and report it.
Completion: 99.5 µM (inactive)

Prompt: Look up GI50 of `Cc1c(-c2nnc(-c3ccccc3)o2)c(=O)n(-c2ccccc2)n1C` and report it.
Completion: > 100 µM (inactive)

Prompt: Look up GI50 of CC1CC(C)C2=NOS3=C2C1=NO3 (configuration not stated) and report it.
Completion: > 100 µM (inactive)
